Origin of measurements: PubChem BioAssay (NCI)

- Tested on: T-47D breast
- experimental.protocol: NCI-60 one-dose screen, 48 h (100 = growth as untreated, 0 = no growth, -100 = all killed)
- condition.details: 10 µM unless noted
The panel holds about 83,000 compounds, 20% with a hit somewhere; the sample as a whole holds those more often.
Hi, to clarify the labels: t covers growth from 50% upward, f covers anything below 50%.

Cc1nc2ccccc2c(/C=C/c2ccc(F)cc2)c1C(N)=O | t
CCOC(=O)CSc1c(-c2ccccc2)c2cc(Cl)ccc2[nH]c1=O | t
Cc1ccc(Nc2nc(N)c3ccccc3n2)cc1Cl | t
Cc1sc2ncn(CC(=O)Nc3ccc(S(N)(=O)=O)cc3)c(=O)c2c1C | t
CCCCN1CCN(c2ccc3nc(-c4ccc5nc(-c6ccc(C(F)(F)F)cc6)[nH]c5c4)[nH]c3c2)CC1 | f
COC(=O)[C@H]1CCCN1C(=O)[C@H]1CCCN1C(=O)[C@H](Cc1c[nH]c2ccccc12)NC(=S)Nc1cc(C(F)(F)F)cc(C(F)(F)F)c1 | t
O=c1oc2ccc(F)cc2c(=O)n1-c1ccc(Cl)cc1F | f
CCCCCCn1c(=N)n(CC(O)COc2cccc(C)c2)c2ccccc21 (stereo not given) | t
O=C(NC(=S)Nc1cccc(NC(=S)NC(=O)c2ccccc2)c1)c1ccccc1 | t
